Value source: PubChem BioAssay AID1159580

assay: chemical genetic growth profiling, strain panel (AID 1159580);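 also: tested at 20 µM; growth read once vehicle control cultures reached saturation at 30 °C; 1 = growth at the plate median or of vehicle wells; lower values mean less growth of the strain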; conditions: S. cerevisiae deletion strains, growth OD, locus YIL073C, strain SPO22, stronger effect = lower value
Out of some 5,500 compounds screened, about 2,000 (36%) were called active. Not shown: some 18% with an inconclusive outcome. This is one part of the list.
recorded metric: normalized growth
Answers are plain numbers.

According to the records, this compound "NCCCS(=O)(=O)O" displays normalized growth of 0.985

So for "Oc1cc(O)c2c(c1)O[C@H](c1ccc(O)c(O)c1)[C@H](O)C2" , the logged normalized growth turned out to be 0.997

Consider COC(=O)C[C@H]1C2(C)CC34OC5(C)O[C@@]6([C@H](OC)C(OC(=O)C(C)C)[C@]7(C)C(/C(=C(/OC)C(C)C)C(=O)O[C@H]7c7ccoc7)[C@@]6(O5)[C@H](OC)[C@@]3(OC)C2OC(C)=O)[C@]14C (some centres not stated) . Its measured normalized growth is 1.02

"Clc1ccc(C(c2ccc(Cl)cc2)C(Cl)(Cl)Cl)cc1" has a reported normalized growth of 0.972

Memo: c1ccc2c(c1)CCCC2C1=NCCN1 (configuration not stated) , reported normalized growth: 1.02

What the record says about "CCN(CC)Cc1ccc(Nc2ccnc3cc(Cl)ccc23)cc1O" : normalized growth is 1.01

New cases:
normalized growth in this record for "Oc1cc(O)c2c(c1)O[C@H](c1cc(O)c(O)c(O)c1)[C@H](O)C2" : 1.01

====

For each of the molecules below, state its normalized growth.
experiment: chemical genetic growth profiling, strain panel (AID 1159580); conditions: S. cerevisiae deletion strains, growth OD, locus YLR370C, strain arc18, stronger effect = lower value
Screen size: about 5,500 compounds; about 2,000 (36%) were called active. About 18% were inconclusive and are not listed. Some of the results follow.

Check out these entries, answers already filled in.
Quick note, normalized growth for "COc1ccc(-c2coc3cc(O)ccc3c2=O)c(OC)c1O" landed at 0.978 (inactive)

For this molecule ( "NCCCS(=O)(=O)O" ), measured normalized growth is 1.01 (inactive)

For reference, reported normalized growth for "COc1ccc2c(c1)OC/C(=C\c1ccc(OC)c(O)c1)C2=O" stands at 0.938 (inactive)

# normalized growth of "NCCS(=O)(=O)O" = 0.981 (inactive)

Kindly note the recorded normalized growth for "N[C@@H](Cc1ccc(N(CCCl)CCCl)cc1)C(=O)O" , which is 0.978 (inactive)

// normalized growth value for COC(=O)C1=COC(OC2OC(CO)C(O)C(O)C2O)C2C(C)CC(=O)C12 (stereo unspecified) : 1.03 (inactive)

Reported normalized growth of C[C@]12CCC(=O)C=C1C=CC1C2CC[C@@]2(C)C1CC[C@@]2(O)CCC(=O)O (stereo partly specified) : 1.02 (inactive)

Entry "O=S(=O)(O)CCS" , normalized growth reported as 0.98 (inactive)

Please go through the list and note normalized growth for each molecule.
1. CC(=O)Oc1cc(OC(C)=O)c2c(c1)O[C@H](c1ccc(OC(C)=O)c(OC(C)=O)c1)[C@H](OC(C)=O)C2
2. C[C@]12CCC(=O)C=C1C=CC1C2CC[C@@]2(C)C1CC[C@@]21CCC(=O)O1 (stereo partly specified)
3. CC(=O)S[C@@H]1CC2=CC(=O)CC[C@]2(C)[C@H]2CC[C@@]3(C)[C@@H](CC[C@@]34CCC(=O)O4)C12 (stereo partly specified)

Marked response:
["0.979 (inactive)", "0.969 (inactive)", "1.02 (inactive)"]

====

assay: chemical genetic growth profiling, strain panel (AID 1159580); conditions: S. cerevisiae deletion strains, growth OD, locus YDR137W, strain rgp1
The campaign covered roughly 5,500 compounds. About 2,000 (36%) were called active. Not shown: some 18% with an inconclusive outcome. Rule as the data show it: active = normalized growth mostly below about 0.91 (no sharp cut-off); inconclusive = no clear call, values can overlap the other calls; inactive = mostly above about 0.92. This is one part of the list.
Entry note: the call must match one of active, inactive

Sample answers from the record:
Exam item: Please share the test call associated with "O=C(Oc1cc(OC(=O)c2ccccc2)c2c(c1)O[C@H](c1ccc(OC(=O)c3ccccc3)c(OC(=O)c3ccccc3)c1)[C@@H](OC(=O)c1ccccc1)C2)c1ccccc1" .
Marked response: inactive

Exam item: Hello, I am checking results. What call was entered for CN(C)CCOC(c1ccc(Cl)cc1)c1ccccn1 (centres undefined) ?
Marked response: inactive

Exam item: What did the test return for CNCCC(Oc1ccc(C(F)(F)F)cc1)c1ccccc1 (centres undefined) ?
Marked response: active

Exam item: Outcome logged for CN(C)CCCC1(c2ccc(F)cc2)OCc2cc(C#N)ccc21 (centres undefined) in this assay:
Marked response: inactive

Exam item: Recorded test outcome, item CC(=O)O[C@H]1C[C@@H](OC(C)=O)C(C)(C)C2CC(=O)[C@]3(C)C(CC[C@@]4(C)[C@H](C(=O)O)OC(=O)C5OC543)[C@]21C (some centres undefined)
Marked response: inactive

Continuing:
Exam item: Recorded call for "Oc1ccc2c(c1)O[C@H](c1ccc(O)c(O)c1)[C@@H](O)C2" ?
Marked response: inactive

Exam item: Test call, this compound: "Clc1ccc(C(c2ccc(Cl)cc2)C(Cl)(Cl)Cl)cc1"
Marked response: inactive

====

Please go through the items and note down their normalized growth.
test: chemical genetic growth profiling, strain panel (AID 1159580);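 also: tested at 20 µM; growth read once vehicle control cultures reached saturation at 30 °C; 1 = growth at the plate median or of vehicle wells; lower values mean less growth of the strain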; conditions: S. cerevisiae deletion strains, growth OD, locus YGL227W, strain vid30, stronger effect = lower value
The whole screen tested about 5,500 compounds, of which about 2,000 (36%) were called active. Not shown: some 18% with an inconclusive outcome. This is one part of the list.
One number for each entry.

Examples with their reported normalized growth follow.
Reported normalized growth ( CC1COc2c(N3CCN(C)CC3)c(F)cc3c(=O)c(C(=O)O)cn1c23 (centres undefined) ) = 0.991

Form field normalized growth, entry "CC1(C)S[C@@H]2[C@H](NC(=O)[C@H](N)c3ccccc3)C(=O)N2[C@H]1C(=O)O" : 0.974

// each compound listed below needs its normalized growth
1. CO/N=C1/CN(c2nc3c(cc2F)c(=O)c(C(=O)O)cn3C2CC2)CC1CN (centres undefined)
2. C[C@H]1COc2c(N3CCN(C)CC3)c(F)cc3c(=O)c(C(=O)O)cn1c23

Marked response:
1: 1.01; 2: 1.02

====

test: chemical genetic growth profiling, strain panel (AID 1159580);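 also: tested at 20 µM; growth read once vehicle control cultures reached saturation at 30 °C; 1 = growth at the plate median or of vehicle wells; lower values mean less growth of the strain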; details: S. cerevisiae deletion strains, growth OD, locus YLR268W, strain sec22, stronger effect = lower value
Out of some 5,500 compounds screened, about 2,000 (36%) were called active. Roughly 18% stayed inconclusive and do not appear here. Some of the results follow.
For each record, write down the corresponding normalized growth.

The compound "COc1ccc(-c2coc3cc(O)ccc3c2=O)c(OC)c1" showed normalized growth equal to 0.991 (inactive)

# compound "O=c1c(-c2ccc(O)cc2)coc2cc(O)ccc12" ; its normalized growth = 0.949 (inactive)

I'm hoping you can list normalized growth for every compound here, please.
1. NS(=O)(=O)c1cc2c(cc1Cl)NC=NS2(=O)=O
2. COC(=O)CC1C2(C)CC34OC5(C)OC6(C7/C(=C(/O)C(C)C)C(=O)OC(c8ccoc8)C7(C)C(OC(=O)C(C)C)C(OC)C6(O5)C13C)C(OC)C4(OC)C2OC(C)=O (stereo not given)
3. CC1(C)S[C@@H]2[C@H](NC(=O)[C@H](N)c3ccccc3)C(=O)N2[C@H]1C(=O)O
4. CCC(C)C(=O)OC1CC2(C)C(c3ccoc3)OC(=O)CC23OC2(C)OC34C(OC(=O)C(C)C)C3(O)C(OC(=O)C5(C)OC5C)C5(C)CC3(O)C(C)(C5C(=O)OC)C14O2 (stereo not given)

Marked response:
["0.996 (inactive)", "0.989 (inactive)", "1.01 (inactive)", "1.05 (inactive)"]

====

assay: chemical genetic growth profiling, strain panel (AID 1159580);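 also: tested at 20 µM; growth read once vehicle control cultures reached saturation at 30 °C; 1 = growth at the plate median or of vehicle wells; lower values mean less growth of the strain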; settings: S. cerevisiae deletion strains, growth OD, locus YGL253W, strain hxk2, stronger effect = lower value
The campaign covered roughly 5,500 compounds. About 2,000 (36%) were called active. Another 18% or so got no clear call; they are omitted. The list shows a part of the results.
I'd appreciate it if you could supply normalized growth values for the items below.
Numbers only.

response.value for OCC(O)CN1CCN(c2ccccc2)CC1 (centres undefined) (field: normalized growth) = 0.993

Dear colleague, could you send me normalized growth for each of the items below? Thanks.
1. C[C@]12CCC(=O)C=C1C=CC1C2CC[C@@]2(C)C1CC[C@@]21CCC(=O)O1 (some centres undefined)
2. COc1c(N2CCNC(C)C2)c(F)cc2c(=O)c(C(=O)O)cn(C3CC3)c12 (centres undefined)

Marked response:
[0.947, 0.989]

// batch mode: one normalized growth value per listed entry
1. CCC[C@H](N[C@@H](C)C(=O)N1[C@H](C(=O)O)C[C@@H]2CCCC[C@@H]21)C(=O)OCC
2. Clc1ccc(C(c2ccc(Cl)cc2)C(Cl)(Cl)Cl)cc1
3. O=c1c(-c2ccc(O)cc2)coc2cc(O)ccc12
4. O=C(/C=C/c1ccc(O)c(O)c1)OCCc1ccccc1
5. CC1COc2c(N3CCN(C)CC3)c(F)cc3c(=O)c(C(=O)O)cn1c23 (centres undefined)
6. C[C@H]1COc2c(N3CCN(C)CC3)c(F)cc3c(=O)c(C(=O)O)cn1c23
7. OCCc1ccccc1
8. CC#CC1(O)CCC2C3CCC4=CC(=O)CCC4=C3C(c3ccc(N(C)C)cc3)CC21C (centres undefined)

Marked response:
1.02
1
0.956
0.749
0.995
1.01
0.986
1
